- Procedure text: Inhibition of Bcl-2/Mcl-1 in human MCF7 cells
- Format: cell-based
Recorded endpoint: IC50 (µM)
Give your result in µM as a bare value.

// sample CC(C)(C)c1ccc(C(=O)NCCN2C(=O)c3cccc4c(Sc5ccc(Br)cc5)ccc(c34)C2=O)cc1 , its IC50 was 7.9

====

- Measured target: Bcl-2-like protein 1 (Homo sapiens, UniProt Q07817)
- Sequence (Q07817 whole entry): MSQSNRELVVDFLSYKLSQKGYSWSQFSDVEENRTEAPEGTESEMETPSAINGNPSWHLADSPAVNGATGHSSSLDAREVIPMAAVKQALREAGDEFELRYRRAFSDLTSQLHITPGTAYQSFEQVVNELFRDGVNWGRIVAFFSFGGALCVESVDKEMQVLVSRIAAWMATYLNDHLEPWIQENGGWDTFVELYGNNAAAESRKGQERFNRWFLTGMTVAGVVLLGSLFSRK
- Procedure text: Binding affinity to Bcl-xL (unknown origin) assessed as inhibition constant
Recorded endpoint: pKi
Please express pKi as -log10 of the molar concentration.

Field pKi (entry CC1=C(C2=C(C)C(=O)C3C(C(C)C)=C(O)C(O)=CC3C2=O)C(=O)c2cc(O)c(O)c(C(C)C)c2C1=O (stereo unspecified) ) reads 6.18
